Tested on: A-549
METHOD_DESCRIPTION: cells
PARTICULARS: Homo sapiens, A549, 48 h, read-out: A549 LC50
Exercise: for every item that follows, state its recorded log10 of CC50.
Annotation: log10 of CC50, nM basis.

These recorded examples may help you get a feel for the data.
INSERT INTO assay_data (compound, quantitative_result) VALUES
  ('COc1cc2c(cc1O)CCN[C@]21CS[C@@H]2c3c(O)c(C)c4c(c3[C@H](COC1=O)N1C2[C@@H]2N[C@@H](Cc3cc(C)c(OC)c(O)c32)[C@@H]1O)OCO4 (some centres unmarked)', 3.80),
  ('COc1c(C)cc2c(c1O)[C@H]1N[C@@H](C2)[C@H](C#N)N2C1[C@@H]1SC[C@]3(NCCc4c3[nH]c3ccc(O)cc43)C(=O)OC[C@H]2c2c3c(c(C)c(OC(C)=O)c21)OCO3 (some centres unmarked)', 2.02),
  ('C=CCN1[C@@H]2c3c(cc(C)c(OC)c3O)C[C@H]1[C@H](C#N)N1C2[C@@H]2SC[C@]3(NCCc4cc(OC(=O)OC(C)(C)C)c(OC)cc43)C(=O)OC[C@H]1c1c3c(c(C)c(OC(=O)CCCCCCC)c12)OCO3 (some centres unmarked)', 4.01),
  ('C=CCN1[C@@H]2c3c(cc(C)c(OC)c3O)C[C@H]1[C@H](C#N)N1C2[C@@H]2SC[C@]3(NCCc4c3[nH]c3ccc(OC)cc43)C(=O)OC[C@H]1c1c3c(c(C)c(OC(C)=O)c12)OCO3 (some centres unmarked)', 2.85);

Let us examine a further case.
Reported log10 of CC50 (A-549) for entry CCCCCCCC(=O)Oc1c(C)c2c(c3c1[C@H]1SC[C@]4(NCCc5cc(O)c(OC)cc54)C(=O)OC[C@@H]3N3C1[C@@H]1N[C@@H](Cc4cc(C)c(OC)c(O)c41)[C@@H]3C#N)OCO2 (some centres unmarked) is 2.99
